target: Adenosine receptor A1 (Rattus norvegicus) (UniProt P25099); assay: Percent displacement from adenosine A1 receptor at 10e-5 M in rat brain membrane in vitro.; type: cell membranes
Sequence (P25099 whole entry): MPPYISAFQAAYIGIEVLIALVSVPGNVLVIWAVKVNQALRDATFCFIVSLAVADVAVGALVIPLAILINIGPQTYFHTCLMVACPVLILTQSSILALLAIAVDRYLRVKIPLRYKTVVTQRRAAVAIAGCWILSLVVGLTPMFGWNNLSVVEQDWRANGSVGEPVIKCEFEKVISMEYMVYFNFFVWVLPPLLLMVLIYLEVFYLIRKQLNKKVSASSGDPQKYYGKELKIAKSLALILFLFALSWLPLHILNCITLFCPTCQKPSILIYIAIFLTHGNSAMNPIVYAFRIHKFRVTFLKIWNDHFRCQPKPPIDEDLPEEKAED
PROPERTY NAME: Displacement (%)

molecule="Cn1cc(CCNc2ncnc3c2ncn3C2O[C@H](C(=O)NC3CC3)[C@@H](O)[C@H]2O)c2ccccc21 (some centres not stated)" assayed_system="Adenosine receptor A1 (Rattus norvegicus) (UniProt P25099)" test_value=99
molecule="C=CCn1cc(CCNc2ncnc3c2ncn3C2O[C@H](C(=O)NC3CC3)[C@@H](O)[C@H]2O)c2ccccc21 (some centres not stated)" assayed_system="Adenosine receptor A1 (Rattus norvegicus) (UniProt P25099)" test_value=100
molecule="O=C(NC1CC1)[C@H]1OC(n2cnc3c(NCCc4cn(Cc5ccc(Cl)s5)c5ccccc45)ncnc32)[C@H](O)[C@@H]1O (some centres not stated)" assayed_system="Adenosine receptor A1 (Rattus norvegicus) (UniProt P25099)" test_value=100
molecule=CC(C)n1cc(CCNc2ncnc3c2ncn3[C@@H]2O[C@H](C(=O)NC3CC3)[C@@H](O)[C@H]2O)c2ccccc21 assayed_system="Adenosine receptor A1 (Rattus norvegicus) (UniProt P25099)" test_value=87
molecule="CSc1ccc2c(c1)c(CCNc1ncnc3c1ncn3C1O[C@H](C(=O)NC3CC3)[C@@H](O)[C@H]1O)cn2Cc1cc(C)ccc1C (some centres not stated)" assayed_system="Adenosine receptor A1 (Rattus norvegicus) (UniProt P25099)" test_value=82
molecule="COc1ccc2c(c1)c(CCNc1ncnc3c1ncn3C1O[C@H](C(=O)NC3CC3)[C@@H](O)[C@H]1O)cn2Cc1cc(C)ccc1C (some centres not stated)" assayed_system="Adenosine receptor A1 (Rattus norvegicus) (UniProt P25099)" test_value=100
molecule="Cc1ccc(Cn2cc(CCNc3ncnc4c3ncn4C3O[C@H](C(=O)NC4CC4)[C@@H](O)[C@H]3O)c3ccccc32)cc1C (some centres not stated)" assayed_system="Adenosine receptor A1 (Rattus norvegicus) (UniProt P25099)" test_value=96

###

system: Mus musculus; test: Effective dose for phenylbenzoquinone-induced writhing in mice after peroral administration expressed as analgesic activity.; assay type: functional; conditions: po
PROPERTY NAME: ED50 (mg/kg)
Dear colleague, please return just the value in mg/kg, with no unit written.

Worked cases, answers included:
molecule="CN(C)c1ccccc1Cn1cc(CCNc2ncnc3c2ncn3C2O[C@H](C(=O)NC3CC3)[C@@H](O)[C@H]2O)c2ccccc21 (stereo partly specified)" property_name=ED50 measurement_units=mg/kg test_value=1.9
molecule=O=C(NC1CC1)[C@H]1O[C@@H](n2cnc3c(NCCc4cn(C5CCCC5)c5ccccc45)ncnc32)[C@H](O)[C@@H]1O property_name=ED50 measurement_units=mg/kg test_value=1.5
molecule=COCCn1cc(CCNc2ncnc3c2ncn3[C@@H]2O[C@H](C(=O)NC3CC3)[C@@H](O)[C@H]2O)c2ccccc21 property_name=ED50 measurement_units=mg/kg test_value=1.2
molecule=Cc1ccc(C)c(Cn2cc(CCNc3ncnc4c3ncn4[C@@H]3O[C@H](C(=O)NC4CC4)[C@@H](O)[C@H]3O)c3cc(Cl)ccc32)c1 property_name=ED50 measurement_units=mg/kg test_value=6.3
molecule="Cc1ccc(C)c(Cn2c(C)c(CCNc3ncnc4c3ncn4C3O[C@H](C(=O)NC4CC4)[C@@H](O)[C@H]3O)c3ccccc32)c1 (stereo partly specified)" property_name=ED50 measurement_units=mg/kg test_value=1.2

Prompt line: Query: ED50; subject: O=C(NC1CC1)[C@H]1O[C@@H](n2cnc3c(NCCc4c[nH]c5ccccc45)ncnc32)[C@H](O)[C@@H]1O
Response line: 34.9

Prompt line: Query: ED50; subject: C=CCn1cc(CCNc2ncnc3c2ncn3C2O[C@H](C(=O)NC3CC3)[C@@H](O)[C@H]2O)c2ccccc21 (stereo partly specified)
Response line: 5.3

Prompt line: Query: ED50; subject: O=C(NC1CC1)[C@H]1OC(n2cnc3c(NCCc4c(-c5ccccc5)[nH]c5ccccc45)ncnc32)[C@H](O)[C@@H]1O (stereo partly specified)
Response line: 27.1

Prompt line: Query: ED50; subject: COc1ccccc1Cn1cc(CCNc2ncnc3c2ncn3C2O[C@H](C(=O)NC3CC3)[C@@H](O)[C@H]2O)c2ccccc21 (stereo partly specified)
Response line: 2.3

Prompt line: Query: ED50; subject: Cc1ccc(C)c(Cn2cc(CCNc3ncnc4c3ncn4C3O[C@H](C(=O)NC4CC4)[C@@H](O)[C@H]3O)c3ccccc32)c1 (stereo partly specified)
Response line: 2.4

Prompt line: Query: ED50; subject: OC[C@H]1O[C@@H](n2cnc3c(NCCc4cn(Cc5ccc(Cl)cc5)c5ccccc45)ncnc32)[C@H](O)[C@@H]1O
Response line: 40.8
